Entries and their HepG2 cells mean TOX50 values follow.
- Test system: HepG2 cells
- PROCEDURE_DETAILS: HepG2 cytotoxicity assay
- Type: cell-based
- ASSAY_CONDITIONS: HepG2 cells; mean
The reply should contain only the number, in µM.

Below, each entry is followed by its recorded HepG2 cells mean TOX50 result.
{"MOLECULE": "C[C@H](Cc1ccc(OCCCCCCOc2ccc(C[C@@H](C)N[C@H](C)c3ccccc3)cc2)cc1)NC[C@H](O)c1cccc(Cl)c1.Cl [TCMDC-131564]", "STUDY_TARGET": "HepG2 cells", "OBSERVED_VALUE": 4.28}
{"MOLECULE": "CN(C)c1ccc(-c2csc(C(=O)NCC3CCN(Cc4ccc(C(C)(C)C)cc4)C3)c2)cc1.O=C(O)C(F)(F)F (stereo not drawn) [TCMDC-134449]", "STUDY_TARGET": "HepG2 cells", "OBSERVED_VALUE": 7.24}
{"MOLECULE": "CN(CCc1ccccc1)c1ncc(-c2cccc(CNCCC3CCCN3C)c2)cn1 (stereo not drawn) [TCMDC-133143]", "STUDY_TARGET": "HepG2 cells", "OBSERVED_VALUE": 2.88}

Consider the additional molecule presented here.
Name the recorded HepG2 cells mean TOX50 for O=C(O)C(F)(F)F.O=S(=O)(NCCN1CCCC1)c1ccc(-c2cccc(CNC3Cc4ccccc4C3)c2)s1 [TCMDC-132217] .
5.50

====

- Test system: HepG2 cells
- PROCEDURE_DETAILS: HepG2 cytotoxicity assay
- Type: cell-based
- ASSAY_CONDITIONS: mean
- Experimental: After incubation, plates and CellTiter-Glo Reagent (G7571, Promega) were equilibrated at room temperature for 30 min before proceeding to develop the luminescent signal. Using a Multidrop combi dispenser, 25 μl per well of the signal developer were added to the plates and after 10 min at room temperature for stabilization, plates were read on the ViewLux system (Perkin Elmer).
We use 4 µM as the dividing line for HepG2 cells mean TOX50: on or above the line is criterion met, below is criterion not met.

Reference set (3 entries):
{"MOLECULE": "Cc1ccc(S(=O)(=O)N(CCCNCc2cccc(O)c2)c2ccccc2)cc1", "ASSIGNED_CLASS": "criterion met"}
{"MOLECULE": "COc1cc2ccccc2c(OC)c1CCNCCCCNCCc1c(OC)cc2ccccc2c1OC.CS(=O)(=O)O", "ASSIGNED_CLASS": "criterion met"}
{"MOLECULE": "Clc1ccc(Nc2nc(NCc3ccccc3)nc(N/N=C/c3ccccn3)n2)cc1", "ASSIGNED_CLASS": "criterion met"}

HepG2 cells mean TOX50 >= 4 µM for `CCCOc1ccc(CCNCCCCNCCc2ccc(OCCC)c3ccccc23)c2ccccc12.CS(=O)(=O)O` ?
criterion not met

====

- Tested on: P. falciparum stage V female gametocytes
- PROCEDURE_DETAILS: P. falciparum female gametocyte activation assay (Pf FGAA), 24 h or 48 h preincubation, Pfs25 expression readout
- Format: cell-based, Plasmodium falciparum NF54
- ASSAY_CONDITIONS: P. falciparum female gametocytes; mean; read-out: Gametocytes mean Pf FGAA IC50
PROPERTY: IC50
State the value, then name its unit.

{"COMPOUND": "Cc1[nH]c(C)c(-c2ccc(CCc3ccc(F)cc3F)cc2)c(=O)c1Cl", "STUDY_TARGET": "P. falciparum stage V female gametocytes", "IC50": "13300 nM"}

Name the recorded IC50 for CC(C)c1ccc(CN2CCC(CNC(=O)c3cc(-c4cccc(F)c4)cs3)C2)cc1.O=C(O)C(F)(F)F (stereo not shown) .
1370 nM

Name the recorded IC50 for `CCc1c(CCNCCCCCNCCc2ccc(OC)c(OC)c2CC)ccc(OC)c1OC.Cl` .
2050 nM

Name the recorded IC50 for `CNCCCNCc1ccc(-c2ccc(F)c(Cl)c2)o1.Cl` .
1870 nM

====

- System: P. falciparum stage V female gametocytes
- PROCEDURE_DETAILS: P. falciparum female gametocyte activation assay (Pf FGAA), 24 h or 48 h preincubation, Pfs25 expression readout
- Format: cell-based, Plasmodium falciparum NF54
- ASSAY_CONDITIONS: P. falciparum female gametocytes; mean; read-out: Gametocytes mean Pf FGAA IC50
Entries and their pIC50 values follow.
A value of pIC50 is the negative decimal logarithm of a concentration given in moles per litre.

{"MOLECULE": "CN(C)Cc1cccc2nc(-c3csc(Cc4cc(Cl)ccc4OCc4ccccc4)n3)[nH]c12", "OBSERVED_VALUE": 5.68}
{"MOLECULE": "CCOc1ccc(-n2nc3c(Cl)nnc(-c4ccccc4)c3c2-c2ccccc2)cc1", "OBSERVED_VALUE": 6.03}
{"MOLECULE": "COc1ccc(CNC2CCN(C)CC2)cc1-c1ccc(S(=O)(=O)NCc2ccccc2)s1.O=C(O)C(F)(F)F", "OBSERVED_VALUE": 5.76}
{"MOLECULE": "Br.Oc1ccc(CCNCCCCCCNCCc2ccc(-c3ccccc3)cc2)cc1O", "OBSERVED_VALUE": 4.96}
{"MOLECULE": "CNC(=S)NN=C(C)c1ccccn1", "OBSERVED_VALUE": 7.85}

Name the recorded pIC50 for `FC(F)(F)c1ccc2[nH]c(-c3ccc(-c4cccc(CN5CCC(CCN6CCCCC6)CC5)c4)cc3)nc2c1.O=C(O)C(F)(F)F` .
5.90

Name the recorded pIC50 for `Cc1cc(C(=O)Nc2nc(-c3ccccn3)nc3ccsc23)no1` .
6.46

Name the recorded pIC50 for `COc1ccccc1CNc1ccnc(N2CC(Oc3ccc(F)cc3)C2)n1` .
5.39

Name the recorded pIC50 for CCCC(N)C(=O)NC1CCN(c2c(F)c(N)c3c(=O)c(C(=O)O)cn4c3c2Oc2ccccc2-4)C1.Cl (stereo not drawn) .
5.94

Name the recorded pIC50 for `C[C@H](Cc1ccc(Oc2ccc(C[C@@H](C)NC[C@H](O)c3cccc(Cl)c3)cc2)cc1)NC[C@H](O)c1cccc(Cl)c1.Cl` .
6.14

Name the recorded pIC50 for `Cc1occc1C(=O)Nc1nc(-c2ccccn2)nc2ccsc12` .
7.22

Name the recorded pIC50 for COc1cccc(-c2csc(C(=O)NCC3CCN(Cc4ccc(C(C)C)cc4)C3)c2)c1.O=C(O)C(F)(F)F (stereo not drawn) .
5.86

Name the recorded pIC50 for CCC(CSC1CCCCC1)N(C)CCN(C)C(CC)CSC1CCCCC1.Cl (stereo not drawn) .
5.90

====

Entries and their HepG2 cells mean TOX50 values follow.
- Test system: HepG2 cells
- PROCEDURE_DETAILS: HepG2 cytotoxicity assay
- Assay type: cell-based
- ASSAY_CONDITIONS: mean
The reply should contain only the number, in µM.

Below, each entry is followed by its recorded HepG2 cells mean TOX50 result.
{"COMPOUND": "COc1cc(/C=C(\\C2=NC(=O)CS2)c2nc3cccnc3n2C)ccc1O", "UNIT_INFO": "µM", "OBSERVED_VALUE": 21.14}
{"COMPOUND": "CC(=O)N(Cc1ccc(CC(C)NCCc2cccc(Cl)c2)cc1)Cc1ccc(CC(C)NCCc2cccc(Cl)c2)cc1 (stereo not shown)", "UNIT_INFO": "µM", "OBSERVED_VALUE": 2.85}
{"COMPOUND": "Nc1nc(N)c2c(ccc3[nH]c(-c4ccccc4Cl)nc32)n1", "UNIT_INFO": "µM", "OBSERVED_VALUE": 2.32}
{"COMPOUND": "CCCCSc1c(CNCCCCCCNCc2ccc3ccccc3c2SCCCC)ccc2ccccc12.CS(=O)(=O)O", "UNIT_INFO": "µM", "OBSERVED_VALUE": 2.76}
{"COMPOUND": "COc1ccc(-c2ccccc2)cc1NC(=S)NC1CCC(CN2CCC(c3c[nH]c4ccccc34)CC2)CC1 (stereo not shown)", "UNIT_INFO": "µM", "OBSERVED_VALUE": 5.50}
{"COMPOUND": "CC(Cc1ccc(NC(=O)c2ccc(CNCCCCc3ccccc3)cc2)cc1)NCCc1cccc(Cl)c1.Cl (stereo not shown)", "UNIT_INFO": "µM", "OBSERVED_VALUE": 1.97}

Name the recorded HepG2 cells mean TOX50 for `CCCN(CCC)CCCN(CCCN(CCC)CCC)c1cc(C)nc(Nc2ccc3cc(Br)ccc3c2)n1.Cl` .
3.43

Name the recorded HepG2 cells mean TOX50 for `C=C[C@H]1CN(CCCCCCC)CC[C@H]1CCNc1ccnc2ccc(OC)cc12` .
2.24

Name the recorded HepG2 cells mean TOX50 for `O=C(/C=C/c1ccc(Cl)c(Cl)c1)N1CCC(CN2CCC(c3c[nH]c4ccncc34)CC2)CC1` .
5.32

Name the recorded HepG2 cells mean TOX50 for `COc1cc(NCCCNCc2cn(Cc3cc(Br)cc(Br)c3)c3ccccc23)nc2ccccc12` .
3.94

Name the recorded HepG2 cells mean TOX50 for `CC(C)(C)c1ccc(CNC(=O)/C=C/c2ccc(CNC3CCNCC3)cc2)cc1` .
9.47

Name the recorded HepG2 cells mean TOX50 for `COc1ccccc1-c1nc2c(ccc3nc(N)nc(N)c32)[nH]1` .
2.87

Name the recorded HepG2 cells mean TOX50 for `COc1ccc2nc(-c3ccccc3)cc(NCCCNc3cc(-c4ccccc4)nc4ccc(OC)cc34)c2c1.Cl` .
70.79

Name the recorded HepG2 cells mean TOX50 for `COc1ccc(NC(=O)c2ccc(OCCCCCCCOc3ccc(C(=O)Nc4ccc(OC)c(N5CCN(C)CC5)c4)cc3)cc2)cc1N1CCN(C)CC1.O=C(O)C(=O)O` .
4.43

Name the recorded HepG2 cells mean TOX50 for `CN(C)CCNCc1ccc(-c2ccc3c(Nc4ccc(Cl)cc4F)ccnc3c2)o1` .
0.89

Name the recorded HepG2 cells mean TOX50 for `CCCCOc1c(CCNCCCCNCCc2cc(OC)c3ccccc3c2OCCCC)cc(OC)c2ccccc12.CS(=O)(=O)O` .
1.97
